target: human TRPV1 (Homo sapiens, UniProt Q8NER1); construct: using primers designed surrounding the complete hTRPV1 open reading frame; expressed in transfected cells; host or cells: CHO-K1 cells stably transfected with pcDNA3.1(-)-hVR1 plasmid; assay: Capsaicin-based assay, Protocol 2 (TRPV1/CHO cells, Fluo-4, FLIPR); format: cell-based; conditions: capsaicin 100 nM final, mean ± SEM, number of trials in parentheses, read-out: TRPV1 IC50 Potency, Human Capsaicin CHO (hCAP-CHO)
Sequence (Q8NER1 whole entry): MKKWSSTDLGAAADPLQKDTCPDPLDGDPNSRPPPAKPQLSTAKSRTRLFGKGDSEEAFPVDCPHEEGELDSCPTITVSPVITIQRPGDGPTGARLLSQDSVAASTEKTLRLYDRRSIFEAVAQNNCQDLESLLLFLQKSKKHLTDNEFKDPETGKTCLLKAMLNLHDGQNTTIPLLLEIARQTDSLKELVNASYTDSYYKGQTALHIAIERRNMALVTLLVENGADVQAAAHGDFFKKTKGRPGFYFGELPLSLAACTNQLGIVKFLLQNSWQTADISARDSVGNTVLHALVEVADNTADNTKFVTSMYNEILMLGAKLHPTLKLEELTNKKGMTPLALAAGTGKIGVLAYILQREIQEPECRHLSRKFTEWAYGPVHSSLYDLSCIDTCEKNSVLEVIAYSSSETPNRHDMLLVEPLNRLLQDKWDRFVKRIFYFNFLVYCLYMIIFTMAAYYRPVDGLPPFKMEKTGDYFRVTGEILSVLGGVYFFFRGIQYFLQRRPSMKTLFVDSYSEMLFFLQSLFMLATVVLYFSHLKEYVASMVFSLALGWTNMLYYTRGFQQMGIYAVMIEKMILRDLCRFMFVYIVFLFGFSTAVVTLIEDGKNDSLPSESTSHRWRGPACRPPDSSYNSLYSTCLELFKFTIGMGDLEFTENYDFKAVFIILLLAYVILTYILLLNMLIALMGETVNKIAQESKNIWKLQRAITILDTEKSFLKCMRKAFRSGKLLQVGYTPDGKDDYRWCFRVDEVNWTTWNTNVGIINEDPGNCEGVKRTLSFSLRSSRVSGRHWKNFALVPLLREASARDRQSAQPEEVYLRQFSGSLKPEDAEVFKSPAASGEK
pIC50: −log10 of the molar value.
measurement type: pIC50

| compound | value |
| --- | --- |
| O=C(Nc1ccc(C(F)(F)F)c(F)c1)N1CCC(F)(c2ncc([C@H](O)CO)cc2Cl)CC1 [Compound F1] | 7.73 |
| CC(O)c1cnc(C2=CCN(C(=O)Nc3ccc(C(F)(F)F)cn3)CC2)c(Cl)c1 (stereo not shown) [Compound B6] | 6.04 |
| O=C(Nc1ccc(C(F)(F)F)cn1)N1CC=C(c2ncc(CCO)cc2Cl)CC1 [Compound D6] | 6.21 |
| CS(=O)(=O)NCc1cnc(C2=CCN(C(=O)Nc3ccc(C(F)(F)F)cc3)CC2)c(Cl)c1 [Compound M4] | 6.33 |

---

target: human TRPV1 (Homo sapiens, UniProt Q8NER1); construct: using primers designed surrounding the complete hTRPV1 open reading frame; expressed in transfected cells; host or cells: CHO-K1 cells stably transfected with pcDNA3.1(-)-hVR1 plasmid; test: pH-based assay, Protocol 2 (TRPV1/CHO cells, Fura-2 AM, FDSS-3000, pH 5.0-5.1); format: cell-based; details: H2SO4 agonist, mean ± SEM, number of trials in parentheses, read-out: TRPV1 IC50 Potency, Human pH CHO (hpH-CHO)
measurement type: log10(IC50) (log10 of the value in nM)

| compound | value |
| --- | --- |
| CC(O)c1cnc(C2=CCN(C(=O)Nc3ccc(C(F)(F)F)cc3)CC2)c(Cl)c1 (centres unmarked) | 1.93 |
| O=C(Nc1ccc(C(F)(F)F)cc1)N1CCC(F)(c2ncc([C@H](O)CO)cc2Cl)CC1 | 0.80 |
| O=C(Nc1ccc(C(F)(F)F)c(F)c1)N1CC=C(c2ncccc2F)CC1 | 2.77 |
| O=C(Nc1ccc(C(F)(F)F)cn1)N1CC=C(c2ncccc2Cl)CC1 | 2.27 |
| CN1CCCc2ccc(NC(=O)N3CCN(c4ncc([C@H](O)CO)cc4Cl)CC3)cc21 | 2.71 |
| O=C(Nc1ccc(C(F)(F)F)cc1)N1CC=C(c2ncc([C@@H](O)CO)cc2Cl)CC1 | 1.58 |
| O=C(Nc1ccc(OC(F)(F)F)c(Br)c1)N1CC=C(c2ncc(CO)cc2Cl)CC1 | 1.70 |
| O=C(Nc1ccc(Br)c(C(F)(F)F)c1)N1CCC(F)(c2ncc([C@H](O)CO)cc2Cl)CC1 | 1.18 |

---

assay: Aqueous solubility; type: physicochemical; conditions: aqueous solution, pH 6.8, aqueous buffer; read-out: aqueous solubility at pH 6.8
Documented solubility across a set of compounds

| sample smiles | solubility |
| --- | --- |
| O=C(Nc1ccc(C(F)(F)F)c(Cl)c1)N1CC=C(c2ncc([C@H](O)CO)cc2F)CC1 | 26.4 µM |
| O=C(Nc1ccc(S(=O)(=O)C(F)(F)F)cc1)N1CCC(F)(c2ncc([C@H](O)CO)cc2Cl)CC1 | > 50 µM |
| O=C(Nc1ccc(C(F)(F)F)cc1)N1CC=C(c2ncc(CO)cc2Cl)CC1 | > 50 µM |

---

biological target: human TRPV1 (Homo sapiens, UniProt Q8NER1); construct: using primers designed surrounding the complete hTRPV1 open reading frame; expressed in transfected cells; host or cells: CHO-K1 cells stably transfected with pcDNA3.1(-)-hVR1 plasmid; test: pH-based assay, Protocol 2 (TRPV1/CHO cells, Fura-2 AM, FDSS-3000, pH 5.0-5.1); assay type: cell-based; details: H2SO4 agonist, mean ± SEM, number of trials in parentheses, read-out: TRPV1 IC50 Potency, Human pH CHO (hpH-CHO)
Label Yes when IC50 is strictly below 0.05 µM; at or above that, label No.

| compound | label class |
| --- | --- |
| CC(C)(O)c1cnc(C2=CCN(C(=O)Nc3ccc(C(F)(F)F)cc3)CC2)c(Cl)c1 | No |
| CC(C)(O)c1cnc(C2=CCN(C(=O)Nc3nc4ccc(Cl)cc4s3)CC2)c(Cl)c1 | No |
| O=C(Nc1ccc(C(F)(F)F)c(Cl)c1)N1CC=C(c2ncc([C@H](O)CO)cc2Cl)CC1 [Compound D2] | Yes |
| O=C(Nc1ccc(Br)c(C(F)(F)F)c1)N1CC=C(c2ncc([C@H](O)CO)cc2Cl)CC1 [Compound P2] | Yes |
| O=C(Nc1ccc(C(F)(F)F)c(F)c1)N1CC=C(c2ncc([C@H](O)CO)cc2F)CC1 | Yes |
| O=C(Nc1nc2ccc(Cl)cc2s1)N1CCC(F)(c2ncc([C@H](O)CO)cc2F)CC1 | Yes |
| O=C(Nc1ccc(C(F)(F)F)c(F)c1)N1CCC(F)(c2ncc([C@H](O)CO)cc2Cl)CC1 | Yes |
| O=C(Nc1ccc(C(F)(F)F)c(Cl)c1)N1CC=C(c2ncc(CO)cc2Cl)CC1 [Compound L2] | No |
| Cc1ccc(NC(=O)N2CC=C(c3ncc([C@H](O)CO)cc3Cl)CC2)cc1C(F)(F)F | No |
| O=C(Nc1nc2ccc(Cl)cc2s1)N1CCC(F)(c2ncc([C@H](O)CO)cc2Cl)CC1 | Yes |
| O=C(Nc1ccc(C(F)(F)F)cn1)N1CCC(F)(c2ncc([C@@H](O)CO)cc2F)CC1 | No |
| O=C(Nc1ccc(C(F)(F)F)cn1)N1CCC(F)(c2ncc([C@@H](O)CO)cc2Cl)CC1 | No |
| O=C(Nc1ccc(S(=O)(=O)C(F)(F)F)cc1)N1CCC(F)(c2ncc([C@@H](O)CO)cc2Cl)CC1 | Yes |
| CC(C)c1cc(NC(=O)N2CC=C(c3ncc([C@H](O)CO)cc3Cl)CC2)ccc1OC(F)(F)F | Yes |
| CC(O)c1cnc(C2=CCN(C(=O)Nc3ccc(C(F)(F)F)cn3)CC2)c(Cl)c1 (stereo not drawn) | No |
| O=C(Nc1ccc(OC(F)(F)F)cc1)N1CCC(F)(c2ncc([C@H](O)CO)cc2Cl)CC1 | Yes |
| O=C(Nc1ccc(C(F)(F)F)c(Cl)c1)N1CCC(F)(c2ncc([C@@H](O)CO)cc2Cl)CC1 | Yes |
| O=C(Nc1nc2ccc(Cl)cc2s1)N1CC=C(c2ncc([C@H](O)CO)cc2Cl)CC1 | Yes |

---

Documented pIC50 across a set of compounds
target: human TRPV1 (Homo sapiens); construct: using primers designed surrounding the complete hTRPV1 open reading frame; expressed in transfected cells; host or cells: CHO-K1 cells stably transfected with pcDNA3.1(-)-hVR1 plasmid; test: pH-based assay, Protocol 2 (TRPV1/CHO cells, Fura-2 AM, FDSS-3000, pH 5.0-5.1); assay type: cell-based; details: H2SO4 agonist, mean ± SEM, number of trials in parentheses, read-out: TRPV1 IC50 Potency, Human pH CHO (hpH-CHO)
pIC50: −log10 of the molar value.

| compound | experimental system | pIC50 |
| --- | --- | --- |
| O=C(Nc1ccc(C(F)(F)F)cn1)N1CC=C(c2ncc([C@H](O)CO)cc2Cl)CC1 [Compound K1] | human TRPV1 (Homo sapiens) | 7.40 |
| O=C(Nc1ccc(C(F)(F)F)cn1)N1CC=C(c2ncc(CO)cc2Cl)CC1 [Compound Z2] | human TRPV1 (Homo sapiens) | 6.61 |
| O=C(Nc1ccc(S(=O)(=O)C(F)(F)F)cc1)N1CC=C(c2ncc([C@H](O)CO)cc2Cl)CC1 [Compound Q1] | human TRPV1 (Homo sapiens) | 8.09 |
| O=C(Nc1ccc(C(F)(F)F)c(Cl)c1)N1CC=C(c2ncc([C@H](O)CO)cc2F)CC1 [Compound U3] | human TRPV1 (Homo sapiens) | 7.87 |
| O=C(Nc1ccc(S(=O)(=O)C(F)(F)F)cc1)N1CC=C(c2ncc(CO)cc2Cl)CC1 [Compound C2] | human TRPV1 (Homo sapiens) | 7.38 |
| O=C(Nc1nc2ccc(Cl)cc2s1)N1CC=C(c2ncc([C@@H](O)CO)cc2Cl)CC1 [Compound P3] | human TRPV1 (Homo sapiens) | 7.55 |
| CCOC(=O)c1cnc(C2=CCN(C(=O)Nc3ccc(C(F)(F)F)cc3)CC2)c(Cl)c1 [Compound F2] | human TRPV1 (Homo sapiens) | 7.20 |
| O=C(Nc1ccc(C(F)(F)F)cc1)N1CC=C(c2ncc(C(F)(F)CO)cc2Cl)CC1 [Compound F4] | human TRPV1 (Homo sapiens) | 7.49 |
| O=C(Nc1nc2ccc(Cl)cc2s1)N1CC=C(c2ncc(CO)cc2Cl)CC1 [Compound V2] | human TRPV1 (Homo sapiens) | 7.08 |
| O=C(Nc1nc2ccc(F)cc2s1)N1CCC(F)(c2ncc([C@@H](O)CO)cc2Cl)CC1 [Compound H4] | human TRPV1 (Homo sapiens) | 7.01 |
| CC(C)(C)c1ccc(NC(=O)N2CCN(c3ncc([C@H](O)CO)cc3Cl)CC2)cc1 [Compound K6] | human TRPV1 (Homo sapiens) | 9.10 |
| COCc1cnc(C2=CCN(C(=O)Nc3ccc(S(=O)(=O)C(F)(F)F)cc3)CC2)c(Cl)c1 [Compound A3] | human TRPV1 (Homo sapiens) | 6.51 |
| COC(=O)Cc1cnc(C2=CCN(C(=O)Nc3ccc(C(F)(F)F)cc3)CC2)c(Cl)c1 [Compound F6] | human TRPV1 (Homo sapiens) | 6.33 |
| O=C(Nc1ccc(Cl)c(C(F)(F)F)c1)N1CCC(F)(c2ncc([C@H](O)CO)cc2F)CC1 [Compound E5] | human TRPV1 (Homo sapiens) | 7.47 |
| O=C(Nc1ccc(C(F)(F)F)cn1)N1CCC(F)(c2ncccc2Cl)CC1 [Compound 204] | human TRPV1 (Homo sapiens) | 6.81 |
| O=C(Nc1nc2ccc(Cl)cc2s1)N1CC=C(c2ncc([C@H](O)CO)cc2F)CC1 [Compound C4] | human TRPV1 (Homo sapiens) | 7.73 |
